Molecular target: T1, muIgG2a huCLL1 (human, UniProt Q5QGZ9 65-265, limits assumed)
T1 construct: It may be the same construct as muIgG2a monoFc huCLL1 (+) of the ELISA; also called huCLL1.mIgG2a; not shown: mouse IgG2a part
T1 sequence: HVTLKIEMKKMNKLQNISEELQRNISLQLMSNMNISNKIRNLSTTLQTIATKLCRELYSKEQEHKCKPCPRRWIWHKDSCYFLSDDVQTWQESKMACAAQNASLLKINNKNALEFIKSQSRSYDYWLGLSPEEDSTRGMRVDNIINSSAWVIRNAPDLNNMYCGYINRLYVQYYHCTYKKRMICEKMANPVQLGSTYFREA
Experiment: Octet BLI, mAb captured on FAB2G biosensor, antigen in solution
Measured property: t½ (min)
Write the number in min without appending the unit.

Some entries whose results are on file:
- Binder: "D2D88607-9226 (antibody, V domains shown, also called mAb_023) VH: QVQLQQWGAGLLKPSETLSLTCAVYGGSFSGYYWSWIRQPPGKGLEWIGEFNHSGGPNYNPSLKSRVTISTDTSNNQFSLKLSSVTAADTAVYYCARGTTGNYYYYMDVWGKGTTVTVSS VL: AIQMTQSPSSLSASVGDRVTITCRASQGIRNDLGWYQQKPGKAPKLLIYAASSLQSGVPSRFSGSGSGTDFTLTISSLQPEDFATYYCLQDYIYPPTFGPGTKLEIK"
  t½, min: 64.1
- Binder: "D2AD89041-10444 (antibody, V domains shown, also called mAb_049) VH: EVQLLESGGGLVQPGGSLRLSCAASGFTFNNYVMAWVRQVPGKGLEWVSGISGSGLITSYAASVKDRFTISRDNSNNTVYLQMKSLRAEDTAVYFCAKEPHVLLDDYMDVWGKGTTVTVSS VL: EIVLTQSPATLSLSPGERATLSCGASQSVTSSYLAWYQQKPGLAPRLLIYDASNRATGIPDRFSGSGSGTDFTLTISRLEPEDFAVYYCQQYGRSLTFGGGTKVEIK"
  t½, min: 5.4

GET /values?readout=t½&item= D2AD88607-5141 (antibody, V domains shown, also called mAb_038) VH: QVQLVESGGGVVQPGRSLRLSCAASGFTFSSYGMHWVRQAPGKGLEWVAIISYDGSDKYYADSVKGRFTISRDNSKNTLYLQMNSLRAEDTAVYYCARNYNYYMDVWGKGTTVTVSS VL: EIVMTQSPATLSLSPGERATLSCRASQSVRSSYLSWYQQKPGQAPRLLIYGTSTRATGIPARFSGSGSGTDFTLTISSLQPEDFAVYYCQQDYNLPLTFGGGTKVEIK
54.4

Entry source: patent US20250388680A1
